# Tested on: SW620 cells (Trop-2 non-expressing)
# method description: Cytotoxicity of ADCs (CellTiter-Glo), SW620
# Type: cell-based
# assay setup: Table 12; SW620 (Trop-2−); 96 hours after treatment
measurement kind: Ab-IC50 (µg/mL)
Write the value in µg/mL as a bare number.

Input line: Tell me the measured Ab-IC50 of h7E6-SVGL-TG1-vcMMAD: h7E6_SVGL hIgG1 with TG1 tag conjugated with AcLys-vcMMAD (conjugate) VH: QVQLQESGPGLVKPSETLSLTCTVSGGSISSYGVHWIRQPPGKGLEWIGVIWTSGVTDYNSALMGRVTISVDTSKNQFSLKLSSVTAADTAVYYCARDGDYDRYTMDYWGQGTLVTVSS VL: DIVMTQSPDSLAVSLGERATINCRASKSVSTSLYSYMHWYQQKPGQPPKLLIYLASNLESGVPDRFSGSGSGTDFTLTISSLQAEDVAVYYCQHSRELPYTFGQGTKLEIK , please.
Output line: 10.800
